SYSTEM TESTED: T1, human TGFβ2 (human, UniProt P61812 303-414)
T1 construct: also called TGFβ2 homodimer
T1 sequence: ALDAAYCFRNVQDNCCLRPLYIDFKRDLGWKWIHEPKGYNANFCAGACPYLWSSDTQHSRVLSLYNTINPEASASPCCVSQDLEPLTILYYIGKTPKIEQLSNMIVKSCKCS
METHOD SUMMARY: Biacore off-rate vs wt GC1008, 50 nM
Experimental: Plasmids encoding either the GC1008 heavy chain or light chain were used as a template in PCR-based mutagenesis reactions. […] Purified variant antibody samples were analyzed in duplicate on a Biacore® 3000 (GE Healthcare) at 50 nM concentrations, using the 100 RU level TGFβ1, 2, and 3 immobilized surfaces. […]
Catalogue of kd var/kd wt readings, one per entry.
Answer with the value's number alone.

Query: Give kd var/kd wt for the following binder: N32W (antibody, V domains shown, GC1008 IgG4 variant) VH: QVQLVQSGAEVKKPGSSVKVSCKASGYTFSSWVISWVRQAPGQGLEWMGGVIPIVDIANYAQRFKGRVTITADESTSTTYMELSSLRSEDTAVYYCASTLGLVLDAMDYWGQGTLVTVSS VL: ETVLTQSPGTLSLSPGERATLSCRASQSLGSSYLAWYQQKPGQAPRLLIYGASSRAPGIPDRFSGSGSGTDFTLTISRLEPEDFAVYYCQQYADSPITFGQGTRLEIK
Reply: 1.2

Query: Give kd var/kd wt for the following binder: S30E (antibody, V domains shown, GC1008 IgG4 variant) VH: QVQLVQSGAEVKKPGSSVKVSCKASGYTFESNVISWVRQAPGQGLEWMGGVIPIVDIANYAQRFKGRVTITADESTSTTYMELSSLRSEDTAVYYCASTLGLVLDAMDYWGQGTLVTVSS VL: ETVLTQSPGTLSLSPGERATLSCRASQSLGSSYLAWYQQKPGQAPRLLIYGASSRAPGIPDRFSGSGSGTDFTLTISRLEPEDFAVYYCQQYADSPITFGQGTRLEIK
Reply: 1.4

Query: Give kd var/kd wt for the following binder: E74D (antibody, V domains shown, GC1008 IgG4 variant) VH: QVQLVQSGAEVKKPGSSVKVSCKASGYTFSSNVISWVRQAPGQGLEWMGGVIPIVDIANYAQRFKGRVTITADDSTSTTYMELSSLRSEDTAVYYCASTLGLVLDAMDYWGQGTLVTVSS VL: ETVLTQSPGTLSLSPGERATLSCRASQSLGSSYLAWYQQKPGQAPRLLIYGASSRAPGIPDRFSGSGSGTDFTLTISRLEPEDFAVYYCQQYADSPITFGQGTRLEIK
Reply: 0.8

Query: Give kd var/kd wt for the following binder: Y27L (antibody, V domains shown, GC1008 IgG4 variant) VH: QVQLVQSGAEVKKPGSSVKVSCKASGLTFSSNVISWVRQAPGQGLEWMGGVIPIVDIANYAQRFKGRVTITADESTSTTYMELSSLRSEDTAVYYCASTLGLVLDAMDYWGQGTLVTVSS VL: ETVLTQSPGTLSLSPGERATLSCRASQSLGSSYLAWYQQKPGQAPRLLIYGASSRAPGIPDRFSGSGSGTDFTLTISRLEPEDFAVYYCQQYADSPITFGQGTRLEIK
Reply: 1.4
